- Study System: KDR (phospho-KDR, VEGF165-stimulated HUVEC cells) (Homo sapiens (Human))
- Sequence (P35968 20-1356): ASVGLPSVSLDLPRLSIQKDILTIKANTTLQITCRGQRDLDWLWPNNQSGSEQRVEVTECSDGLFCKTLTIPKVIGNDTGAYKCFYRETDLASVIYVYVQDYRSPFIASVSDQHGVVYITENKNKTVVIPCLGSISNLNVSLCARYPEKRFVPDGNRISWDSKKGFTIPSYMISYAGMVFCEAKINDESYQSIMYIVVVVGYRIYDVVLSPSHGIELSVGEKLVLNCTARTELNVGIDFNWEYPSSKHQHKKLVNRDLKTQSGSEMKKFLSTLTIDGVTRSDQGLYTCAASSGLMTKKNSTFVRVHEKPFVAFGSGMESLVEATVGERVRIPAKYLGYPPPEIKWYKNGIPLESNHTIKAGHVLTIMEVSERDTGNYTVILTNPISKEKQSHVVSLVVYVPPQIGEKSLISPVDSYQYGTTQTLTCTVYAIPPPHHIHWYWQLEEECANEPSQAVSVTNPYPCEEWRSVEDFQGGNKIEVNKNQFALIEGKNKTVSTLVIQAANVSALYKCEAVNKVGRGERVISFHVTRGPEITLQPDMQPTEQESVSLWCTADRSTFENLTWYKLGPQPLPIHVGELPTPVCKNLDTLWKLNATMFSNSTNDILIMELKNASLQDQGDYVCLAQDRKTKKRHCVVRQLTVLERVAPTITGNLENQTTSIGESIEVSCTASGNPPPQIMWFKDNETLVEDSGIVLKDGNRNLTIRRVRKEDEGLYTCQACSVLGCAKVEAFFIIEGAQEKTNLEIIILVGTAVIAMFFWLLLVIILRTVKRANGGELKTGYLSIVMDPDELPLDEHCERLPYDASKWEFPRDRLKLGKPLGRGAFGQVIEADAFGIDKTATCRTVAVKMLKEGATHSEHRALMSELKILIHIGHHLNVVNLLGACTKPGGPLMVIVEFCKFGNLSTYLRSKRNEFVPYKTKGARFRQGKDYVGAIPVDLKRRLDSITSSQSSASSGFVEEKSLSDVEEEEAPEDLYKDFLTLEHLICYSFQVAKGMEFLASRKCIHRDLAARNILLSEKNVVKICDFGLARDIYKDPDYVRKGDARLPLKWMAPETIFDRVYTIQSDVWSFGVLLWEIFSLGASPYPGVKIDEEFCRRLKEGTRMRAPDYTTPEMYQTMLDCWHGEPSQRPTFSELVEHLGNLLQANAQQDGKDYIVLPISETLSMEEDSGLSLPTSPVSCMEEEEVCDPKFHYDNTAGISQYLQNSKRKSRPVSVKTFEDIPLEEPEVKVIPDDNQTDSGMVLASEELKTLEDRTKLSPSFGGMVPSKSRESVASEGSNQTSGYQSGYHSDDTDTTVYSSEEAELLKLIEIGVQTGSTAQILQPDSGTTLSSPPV
- Assay Text: KDR autophosphorylation ELISA in HUVEC cells (Example G)
- Format: cell-based
- Stated Conditions: cellular activity; KDR autophosphorylation ELISA in HUVEC cells
Listing of entries alongside the reported IC50.
Recorded Metric: IC50

{"Compound String": "COCCOc1nc2c(Oc3ccc(NC(=O)c4cn(C)c(CO)c(-c5ccc(F)cc5)c4=O)cc3F)ccnc2cc1OC", "Value": "> 300 nM"}
{"Compound String": "COc1cc2nccc(Oc3ccc(NC(=O)c4nn(C)c(C)c(-c5ccc(F)cc5C)c4=O)cc3F)c2nc1OC", "Value": "< 100 nM"}
{"Compound String": "COc1cc2nccc(Oc3ccc(NC(=O)c4cn(CC(F)F)c(C)c(-c5ccc(F)cc5C)c4=O)cc3F)c2nc1OC", "Value": "100 to 300 nM"}
{"Compound String": "COc1cc2nccc(Oc3ccc(NC(=O)c4c(C)nc(C)n(-c5ccc(F)cc5)c4=O)cc3F)c2nc1OC", "Value": "< 100 nM"}
{"Compound String": "COc1cc2nccc(Oc3ccc(NC(=O)c4cn(-c5cn[nH]c5)cc(-c5ccc(F)cc5)c4=O)cc3F)c2nc1OC", "Value": "> 300 nM"}
{"Compound String": "CCn1cc(C(=O)Nc2ccc(Oc3ccnc4cc(OC)c(OC)nc34)c(F)c2)c(=O)c(-c2ccc(F)cc2)c1CF", "Value": "100 to 300 nM"}
{"Compound String": "COc1cc2nccc(Oc3ccc(NC(=O)c4c[nH]c(=S)n(-c5ccc(F)cc5)c4=O)cc3F)c2nc1OC", "Value": "< 100 nM"}

* * *

- Study System: Human KDR (residues 790-1356) (Homo sapiens (Human), UniProt P35968)
- Sequence (P35968 790-1356): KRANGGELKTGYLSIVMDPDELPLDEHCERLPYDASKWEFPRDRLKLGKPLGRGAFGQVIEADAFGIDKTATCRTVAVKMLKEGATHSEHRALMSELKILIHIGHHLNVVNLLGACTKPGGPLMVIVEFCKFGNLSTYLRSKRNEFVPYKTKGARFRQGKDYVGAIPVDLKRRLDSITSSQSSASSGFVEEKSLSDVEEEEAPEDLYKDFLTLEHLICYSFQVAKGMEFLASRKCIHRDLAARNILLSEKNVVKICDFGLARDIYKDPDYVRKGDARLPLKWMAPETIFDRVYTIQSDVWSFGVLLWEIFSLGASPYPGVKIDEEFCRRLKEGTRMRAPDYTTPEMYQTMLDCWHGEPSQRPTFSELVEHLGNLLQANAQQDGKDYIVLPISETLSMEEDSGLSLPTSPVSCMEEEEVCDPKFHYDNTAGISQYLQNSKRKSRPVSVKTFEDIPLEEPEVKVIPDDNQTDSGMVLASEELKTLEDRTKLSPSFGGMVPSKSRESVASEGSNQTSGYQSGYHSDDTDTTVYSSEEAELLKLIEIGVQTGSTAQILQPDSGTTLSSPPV
- Assay Text: Human KDR kinase assay, HTRF KinEase (Example B-2)
- Type: biochemical
- Stated Conditions: protocol of Example B-2 (other compounds)
Where a name gives a salt, the structure may show the parent alone.
# IC50 per record follows

{"Compound": "COc1ccc2c(Oc3ccc(NC(=O)c4cn(C(C)C)c(C)c(-c5ccc(F)cc5)c4=O)cc3F)ccnc2c1", "IC50": "> 300 nM"}
{"Compound": "COCc1nc(C)c(-c2ccc(F)cc2)c(O)c1C(=O)Nc1ccc(Oc2ccnc3cc(OC)cnc23)cc1", "IC50": "< 100 nM"}
{"Compound": "COc1cc2nccc(Oc3ccc(NC(=O)c4cn(C5CC5)c(C)c(-c5ccc(F)cc5C)c4=O)cc3F)c2nc1OC", "IC50": "> 300 nM"}
{"Compound": "COc1ccc2nccc(Oc3ccc(NC(=O)c4ncc(C)n(-c5ccc(F)cc5C)c4=O)cc3F)c2n1", "IC50": "> 300 nM"}
{"Compound": "COc1cnc2c(Oc3ccc(NC(=O)c4cnc(CO)c(-c5ccc(F)cc5)c4O)cc3F)ccnc2c1", "IC50": "100 to 300 nM"}
{"Compound": "COc1ccc2nccc(Oc3ccc(NC(=O)c4c[nH]c(=O)n(-c5ccc(F)cc5)c4=O)cc3F)c2n1", "IC50": "> 300 nM"}
{"Compound": "COc1nc2c(Oc3ccc(NC(=O)c4c(C)nc(C)c(-c5ccc(F)cc5)c4O)cc3F)ccnc2cc1O", "IC50": "< 100 nM"}
{"Compound": "COc1cnc2c(Oc3ccc(NC(=O)c4cn(CC(F)(F)F)c(C)c(-c5ccc(F)cc5)c4=O)cc3F)ccnc2c1", "IC50": "> 300 nM"}
{"Compound": "COc1cc2nccc(Oc3ccc(NC(=O)c4ncnc(-c5ccc(F)cc5)c4O)cc3F)c2nc1OC", "IC50": "< 100 nM"}
{"Compound": "COc1cc2nccc(Oc3ccc(NC(=O)c4cc(C(C)C)c(C)n(-c5ccc(F)cc5)c4=O)cc3F)c2nc1OC", "IC50": "100 to 300 nM"}
{"Compound": "COCCOc1ccc2nccc(Oc3ccc(NC(=O)c4c(C)nc(C)c(-c5ccc(F)cc5)c4O)cc3F)c2n1", "IC50": "< 100 nM"}
{"Compound": "COc1cc2nccc(Oc3ccc(NC(=O)c4cn(CCN5CCOCC5)cc(-c5ccc(F)cc5)c4=O)cc3F)c2nc1OC", "IC50": "> 300 nM"}
{"Compound": "COCCOc1nc2c(Oc3ccc(NC(=O)c4n[nH]c(C)c(-c5ccc(F)cc5C)c4=O)cc3F)ccnc2cc1OC", "IC50": "100 to 300 nM"}
{"Compound": "COc1cnc2c(Oc3ccc(NC(=O)c4ncc(C)n(-c5ccc(F)cc5)c4=O)cc3F)ccnc2c1", "IC50": "> 300 nM"}
{"Compound": "COc1cnc2c(Oc3ccc(NC(=O)c4nnc(C)c(-c5ccc(F)cc5C)c4O)cc3F)ccnc2c1 (single isomer, unassigned) [Compound 249C]", "IC50": "> 300 nM"}
{"Compound": "COc1cc2nccc(Oc3ccc(NC(=O)c4cn(C)c(Cl)c(-c5ccc(F)cc5)c4=O)cc3F)c2nc1OC", "IC50": "< 100 nM"}
{"Compound": "COc1cc2nccc(Oc3ccc(NC(=O)c4ccnn(-c5ccc(F)cc5)c4=O)cc3F)c2nc1OC", "IC50": "< 100 nM"}
{"Compound": "COc1cnc2c(Oc3ccc(NC(=O)c4c(C)ncn(-c5ccc(F)cc5)c4=O)cc3)ccnc2c1", "IC50": "> 300 nM"}
{"Compound": "Cc1ncc(C(=O)Nc2ccc(Oc3ccnc4cc(C(F)(F)F)cnc34)cc2)c(O)c1-c1ccc(F)cc1", "IC50": "> 300 nM"}
{"Compound": "COc1cc2nccc(Oc3ccc(NC(=O)c4cn(-c5cccnc5)cc(-c5ccc(F)cc5)c4=O)cc3F)c2nc1OC", "IC50": "> 300 nM"}
{"Compound": "COc1cc2nccc(Oc3ccc(NC(=O)c4cn(C(C)C)c(C)c(-c5ccc(F)cc5C)c4=O)cc3F)c2nc1OC [Compound 32, hydrochloride]", "IC50": "100 to 300 nM"}
{"Compound": "COc1cc2nccc(Oc3ccc(NC(=O)c4cc(C(C)=O)c(C)n(-c5ccc(F)cc5)c4=O)cc3F)c2nc1OC", "IC50": "> 300 nM"}
{"Compound": "COc1cnc2c(Oc3ccc(NC(=O)c4nccn(-c5ccc(F)cc5)c4=O)cc3)ccnc2c1", "IC50": "> 300 nM"}
{"Compound": "COc1cnc2c(Oc3ccc(NC(=O)c4n[nH]c(C)c(-c5ccc(F)cc5C)c4=O)cc3F)ccnc2c1 [Compound 249A]", "IC50": "> 300 nM"}
{"Compound": "COc1cnc2c(Oc3ccc(NC(=O)c4n[nH]c(C)c(-c5ccc(F)cc5C)c4=O)cc3)ccnc2c1", "IC50": "> 300 nM"}
{"Compound": "COc1cnc2c(Oc3ccc(NC(=O)c4c(C)c(Cl)c(C)n(-c5ccc(F)cc5)c4=O)cc3)ccnc2c1", "IC50": "> 300 nM"}
{"Compound": "COc1cc2nccc(Oc3ccc(NC(=O)c4ncc(C)n(-c5ccc(F)cc5)c4=O)cc3F)c2nc1OC", "IC50": "< 100 nM"}
{"Compound": "COc1cc2nccc(Oc3ccc(NC(=O)c4c(OC)c(C)cn(-c5ccc(F)cc5)c4=O)cc3F)c2nc1OC", "IC50": "< 100 nM"}
